Just for reference, patent US9149038B2 is where these values come from.

Test system: Key Broadleaf Weed and Crop Species
Experiment: Post-Emergent Test II: postemergent herbicidal activity, visual rating after 14 d (Table 7)
Type: in vivo
Details: post-emergence, 336 h, wild poinsettia (Euphorbia heterophylla), 140 g ai/ha, read-out: Visual Growth Reduction (%) 14 Days After Application EPHHL
List of pest or weed control at 140 g/ha values.
MEASURED PROPERTY: pest or weed control at 140 g/ha

# COMPOUND, MEASURED PROPERTY, MEASUREMENT
records = [
    ("COc1c(C(=O)O)nc(-c2ccc3c(c2)OC(F)(F)O3)c(F)c1N", "pest or weed control at 140 g/ha", "95 to 100%"),
    ("COC(=O)c1nc(-c2ccc3c(c2F)OC(F)(F)O3)cc(N)c1Cl", "pest or weed control at 140 g/ha", "95 to 100%"),
    ("C=Cc1c(C(=O)O)nc(-c2ccc3c(c2)OC(F)(F)O3)c(F)c1N", "pest or weed control at 140 g/ha", "85 to 94%"),
    ("COC(=O)c1nc(-c2c(F)cc3c(c2F)OCO3)cc(N)c1Cl", "pest or weed control at 140 g/ha", "95 to 100%"),
    ("COC(=O)c1nc(-c2ccc3c(c2)OC(F)(F)O3)nc(N)c1Cl", "pest or weed control at 140 g/ha", "85 to 94%"),
    ("COC(=O)c1nc(-c2cc3c(cc2F)OC(F)(F)O3)c(F)c(N)c1Cl", "pest or weed control at 140 g/ha", "85 to 94%"),
    ("COC(=O)c1nc(-c2ccc3c(c2OC)OC(F)(F)O3)cc(N)c1Cl", "pest or weed control at 140 g/ha", "0 to 29%"),
    ("COC(=O)c1nc(-c2c(F)cc3c(c2F)OC(F)(F)O3)cc(N)c1Cl", "pest or weed control at 140 g/ha", "85 to 94%"),
    ("Nc1nc(-c2ccc3c(c2F)OC(F)(F)O3)nc(C(=O)O)c1Cl", "pest or weed control at 140 g/ha", "95 to 100%"),
    ("COC(=O)c1nc(-c2ccc(I)c3c2OC(F)(F)O3)c(F)c(N)c1Cl", "pest or weed control at 140 g/ha", "0 to 29%"),
    ("Nc1c(F)c(-c2ccc3c(c2F)OC(F)(F)O3)nc(C(=O)O)c1Cl", "pest or weed control at 140 g/ha", "95 to 100%"),
    ("COC(=O)c1nc(-c2ccc3c(c2)OC(C)O3)c(F)c(N)c1Cl (stereo not drawn)", "pest or weed control at 140 g/ha", "85 to 94%"),
    ("C=Cc1c(C(=O)OC)nc(-c2cc3c(cc2F)OCO3)c(F)c1N", "pest or weed control at 140 g/ha", "95 to 100%"),
    ("COC(=O)c1nc(-c2cc3c(cc2F)OC(F)(F)O3)nc(N)c1Cl", "pest or weed control at 140 g/ha", "95 to 100%"),
    ("COC(=O)c1nc(-c2cc3c(cc2OC)OC(F)(F)O3)cc(N)c1Cl", "pest or weed control at 140 g/ha", "0 to 29%"),
    ("COC(=O)c1nc(-c2ccc3c(c2)OC(F)(F)O3)c(F)c(N)c1Cl", "pest or weed control at 140 g/ha", "95 to 100%"),
    ("COC(=O)c1nc(-c2ccc(Cl)c3c2OC(F)(F)O3)c(F)c(N)c1Cl", "pest or weed control at 140 g/ha", "0 to 29%"),
    ("COc1cc(-c2nc(C(=O)O)c(Cl)c(N)c2F)cc2c1OCO2", "pest or weed control at 140 g/ha", "0 to 29%"),
    ("COc1c(N)nc(-c2ccc3c(c2F)OC(F)(F)O3)nc1C(=O)O", "pest or weed control at 140 g/ha", "95 to 100%"),
    ("Cc1c(-c2cc(N)c(Cl)c(C(=O)O)n2)ccc2c1OC(F)(F)O2", "pest or weed control at 140 g/ha", "0 to 29%"),
    ("COC(=O)c1nc(-c2cc3c(cc2F)OCO3)c(F)c(N)c1Cl", "pest or weed control at 140 g/ha", "95 to 100%"),
    ("Nc1cc(-c2ccc3c(c2Cl)OC(F)(F)O3)nc(C(=O)O)c1Cl", "pest or weed control at 140 g/ha", "60 to 74%"),
    ("COC(=O)c1nc(-c2ccc3c(c2Cl)OC(F)(F)O3)cc(N)c1Cl", "pest or weed control at 140 g/ha", "60 to 74%"),
    ("COC(=O)c1nc(-c2ccc3c(c2)OC(F)(F)O3)nc(N)c1OC", "pest or weed control at 140 g/ha", "95 to 100%"),
    ("Nc1c(F)c(-c2ccc(Br)c3c2OC(F)(F)O3)nc(C(=O)O)c1Cl", "pest or weed control at 140 g/ha", "0 to 29%"),
    ("COC(=O)c1nc(-c2ccc3c(c2)OC(C)(C)O3)nc(N)c1OC", "pest or weed control at 140 g/ha", "95 to 100%"),
    ("Nc1nc(-c2cc3c(cc2F)OC(F)(F)O3)nc(C(=O)O)c1Cl", "pest or weed control at 140 g/ha", "95 to 100%"),
    ("Nc1c(F)c(-c2cc(F)c3c(c2)OC(F)(F)O3)nc(C(=O)O)c1Cl", "pest or weed control at 140 g/ha", "0 to 29%"),
    ("COC(=O)c1nc(-c2cc3c(cc2F)OCO3)c(F)c(N)c1OC", "pest or weed control at 140 g/ha", "95 to 100%"),
    ("Nc1c(F)c(-c2cccc3c2OC(F)(F)O3)nc(C(=O)O)c1Cl", "pest or weed control at 140 g/ha", "0 to 29%"),
    ("COC(=O)c1nc(-c2ccc(Br)c3c2OC(F)(F)O3)c(F)c(N)c1Cl", "pest or weed control at 140 g/ha", "0 to 29%"),
    ("COC(=O)c1nc(-c2cc3c(cc2F)OCO3)cc(N)c1Cl", "pest or weed control at 140 g/ha", "95 to 100%"),
    ("COc1c(N)nc(-c2cc3c(cc2F)OC(F)(F)O3)nc1C(=O)O", "pest or weed control at 140 g/ha", "95 to 100%"),
    ("Nc1nc(-c2ccc3c(c2)OC(F)(F)O3)nc(C(=O)O)c1Cl", "pest or weed control at 140 g/ha", "95 to 100%"),
    ("COc1c(N)nc(-c2ccc3c(c2)OC(F)(F)O3)nc1C(=O)O", "pest or weed control at 140 g/ha", "95 to 100%"),
    ("COC(=O)c1nc(-c2ccc3c(c2F)OC(F)(F)O3)c(Cl)c(N)c1Cl", "pest or weed control at 140 g/ha", "0 to 29%"),
]
